# Tested on: OVCAR-4
# Measurement Notes: NCI tumour cell line growth inhibition, 48 h
Activity calls are given as the source filed them. Rule as the data show it: active = GI50 up to about 1.1 µM and inactive = higher.
Readout Type: GI50

Would you please look over these solved cases?
- Molecule: "CNC(=O)CN(CC(N)=O)C(N)=O"
  Value Reported: "> 100 µM (inactive)"
- Molecule: "COc1ccc(/C=C2\\N=C(SC)NC2=O)cc1"
  Value Reported: "71.1 µM (inactive)"
- Molecule: "O=C1[C@@H]2C(c3cccc([N+](=O)[O-])c3)=NO[C@@H]2C(=O)N1c1ccc(Cc2ccc(N3C(=O)[C@H]4C(c5cccc([N+](=O)[O-])c5)=NO[C@H]4C3=O)cc2)cc1"
  Value Reported: "> 100 µM (inactive)"
- Molecule: "CCC/C(Cl)=N/OC(NC(=O)OCC)(C(F)(F)F)C(F)(F)F"
  Value Reported: "17.6 µM (inactive)"
- Molecule: "COc1ccc(/C=C/c2cc(OC)c(OC)c(OC)c2)cc1OC"
  Value Reported: "> 100 µM (inactive)"
- Molecule: "Cc1cc(C#N)c[n+](C)c1"
  Value Reported: "> 100 µM (inactive)"
- Molecule: "O=C(CC(c1ccccc1)N1CCCCC1)c1ccccc1 (stereo not drawn)"
  Value Reported: "18.4 µM (inactive)"
- Molecule: "C=C1C(=O)OC2/C=C(\\CO)CC/C=C(\\CO)CC(OC(=O)C(C)C)C12 (stereo not drawn)"
  Value Reported: "19.4 µM (inactive)"

Query: Please provide the recorded GI50 for "CC1(C)C(=NNC(=O)C[N+](C)(C)C)C(C)(C)C1=NNC(=O)C[N+](C)(C)C" , tested on OVCAR-4.
Reply: > 100 µM (inactive)

Query: Find the measured GI50: item CC(NC(=O)OCc1ccccc1)NC(=O)C(CC(=O)OC(C)(C)C)NC(=O)OC(C)(C)C (stereo not drawn) , target or system OVCAR-4.
Reply: > 100 µM (inactive)

Query: Enter reported GI50 observed with OVCAR-4 for "CCCCc1c2c(c(C)c3c1C(=O)OC3)Oc1ccccc1O2"
Reply: 3.56 µM (inactive)

Query: Form entry - test system: OVCAR-4; read-out: GI50; molecule: CCCCCCCC(CC(=O)NC(CO)C(=O)NC(CO)CC(C)C)OC(=O)CC(CCCCCCC)OC(=O)CC(CCCCCCC)OC1OC(C)C(O)C(OC2OC(C)C(O)C(OC(C)=O)C2O)C1O (stereo not drawn)
Reply: 12.8 µM (inactive)

Query: Under OVCAR-4: GI50 value of "CCOC(=O)c1c(OCC)[nH]c(=O)c(C(c2ccc(F)cc2)c2c(O)c(C(=O)OCC)c(OCC)[nH]c2=O)c1O" ?
Reply: 14.6 µM (inactive)

Query: Provide value of GI50 for this record tested with OVCAR-4: "CC(C)c1cc(Cl)nc(Cl)n1"
Reply: > 100 µM (inactive)

Query: Notebook: pull reported GI50 for OVCAR-4, entry CCCCCC(=O)C(C)C1=Nc2nnc(CCCCCCCc3nnc4n3C(=O)C(C(C)C(=O)CCCCC)=N4)n2C1=O (stereo not drawn)
Reply: > 100 µM (inactive)

Query: Could you share what GI50 was measured for "O=[N+]([O-])c1ccc(-c2nnc(C34CC5CC(CC(C5)C3)C4)o2)cc1" , tested on OVCAR-4?
Reply: > 100 µM (inactive)

Query: // map "COc1ccc(Cc2n[nH]c(Nc3ccc(Br)cc3)nc2=O)cc1OC" to recorded GI50 (system: OVCAR-4)
Reply: > 100 µM (inactive)

Query: Lookup: GI50 / OVCAR-4 / CN1CCN(C2CC(=O)c3c(Cl)sc(Cl)c32)CC1 (stereo not drawn)
Reply: 14.6 µM (inactive)

---

# Test system: K562
# Measurement Notes: NCI tumour cell line growth inhibition, 48 h
Calls of active or inactive are those of the source. Rule as the data show it: active = GI50 up to about 1.1 µM and inactive = higher.
Readout Type: GI50

Here is how some compounds turned out for GI50.
- Compound: "COc1ccc(COCCOCc2nc(C#N)c(N)o2)cc1"
  Test System: "K562"
  GI50: "> 100 µM (inactive)"
- Compound: "COc1cc(/C=C/C2=NN(c3cccc(S(=O)(=O)O)c3)C3(C2)SCC(=O)N3c2nc3ccccc3s2)cc(OC)c1OC (centres undefined)"
  Test System: "K562"
  GI50: "41.1 µM (inactive)"
- Compound: "CC1OC(n2cc(F)c(=O)[nH]c2=O)C(O[Si](C)(C)C(C)(C)C)C1O[Si](C)(C)C(C)(C)C (centres undefined)"
  Test System: "K562"
  GI50: "15.4 µM (inactive)"
- Compound: "COC(=O)/C=C/c1c(CC=C(C)C)ncn1C"
  Test System: "K562"
  GI50: "4.63 µM (inactive)"
- Compound: "COc1cc(C(c2cc3c(cc2O)OCO3)N2CCCCC2)cc(OC)c1OC (centres undefined)"
  Test System: "K562"
  GI50: "2.63 µM (inactive)"

Query: Quick check: GI50 of "O=C(O)c1ccn(-c2cccc(-n3ccc(C(=O)O)n3)n2)n1" ?
Reply: > 100 µM (inactive)

---

# System: U-251
# Measurement Notes: NCI tumour cell line growth inhibition, 48 h
The source made the active and inactive calls. Rule as the data show it: active = GI50 up to about 1.1 µM and inactive = higher.
Outcome (select one): Yes (active), No (inactive)

Would you please look over these solved cases?
- Compound: "O=C(C=P(c1ccccc1)(c1ccccc1)c1ccccc1)c1ccccc1-c1ccccc1C(=O)C=P(c1ccccc1)(c1ccccc1)c1ccccc1"
  Test System: "U-251"
  Group Label: "Yes"
- Compound: "CC(C)NC(=O)OCc1c(CO)c2c(n1C)-c1ccccc1CC2"
  Test System: "U-251"
  Group Label: "No"
- Compound: "NC(=O)c1ncn2c(=O)n(CCl)nnc12"
  Test System: "U-251"
  Group Label: "No"

Now take the following compound into account.
Query: Check the results log: what was the call for COc1ccc(C(O)/C(=C/n2ccnc2)c2ccccc2)cc1OC (centres undefined) ?
Reply: No

---

Quick reference for GI50 among some molecules
# System: Hs-578T
# Measurement Notes: NCI tumour cell line growth inhibition, 48 h
The source made the active and inactive calls. Cut-off read from the data, not from the text of the source: active = GI50 up to about 1.1 µM and inactive = higher.

- Molecule: "CC(C)(C)c1cc(OCc2nnc3sc(S)nn23)c(Cl)cc1OCc1nnc2sc(S)nn12"
  Test System: "Hs-578T"
  GI50: "77.3 µM (inactive)"

Query: So what's the measured GI50 for this one? "O=C(O)c1ccn(-c2cccc(-n3ccc(C(=O)O)n3)n2)n1"
Reply: > 100 µM (inactive)

Query: Which value of GI50 has been reported for "Cc1ccc(NC(Nc2ccc(C)cc2C)=C(C(Cl)=C(Cl)Cl)[N+](=O)[O-])c(C)c1" in the records?
Reply: 22.8 µM (inactive)

Query: Name the reported GI50 value associated with the molecule N/N=C(\c1nc2ccc([N+](=O)[O-])cc2nc1O)C(O)c1ccc(Cl)c(Cl)c1 (centres undefined)
Reply: > 100 µM (inactive)

Query: So what does the record say about GI50 for CC(=O)O[C@H]1CCC2[C@@H]3CCC4Cc5nc6c(nc5C[C@]4(C)C3CC[C@@]21C)CC1CC[C@@H]2C(CC[C@@]3(C)C2CC[C@@H]3C(C)CCCC(C)C)[C@@]1(C)C6 (some centres undefined) ?
Reply: > 100 µM (inactive)

Query: So what's the measured GI50 for this one? CCCC(Sc1nc(N)nc2nc[nH]c12)C(=O)O (centres undefined)
Reply: > 100 µM (inactive)

Query: I'd like to know its GI50. The molecule in question is COc1cc(C2SC(=N)Nc3c2c(C)nn3C(=O)c2ccc(Cl)cc2)ccc1O (centres undefined)
Reply: > 10 µM (inactive)

---

# Tested on: OVCAR-5
# Measurement Notes: NCI tumour cell line growth inhibition, 48 h
The source made the active and inactive calls. No stated cut-off is given here; in the data, active = GI50 up to about 1.1 µM and inactive = higher.
Listing of entries alongside the reported GI50.

Would you please look over these solved cases?
- Compound: "CC(=O)c1c2c(cc3c1CCC3)CCC2"
  GI50: "> 100 µM (inactive)"
- Compound: "O=C1c2cccc3cc([N+](=O)[O-])cc(c23)C(=O)N1c1ccc(OCCN2CCCC2)cc1"
  GI50: "19.4 µM (inactive)"
- Compound: "N#CC1=C(S)N(C2OC(CO)C(O)C(O)C2O)C(c2ccccc2)=CC1c1ccco1 (centres undefined)"
  GI50: "> 100 µM (inactive)"

Query: Which GI50 reading was recorded for the compound "Cc1ccc(C2=CC(=O)/C(=C\C(=O)c3ccc(Br)cc3)O2)c(C)c1" ?
Reply: 23.7 µM (inactive)

---

# Lookup of reported GI50 keyed by entry
# System: NCI/ADR-RES
# Measurement Notes: NCI tumour cell line growth inhibition, 48 h
Active and inactive are the calls of the source. Rule as the data show it: active = GI50 up to about 1.1 µM and inactive = higher.

Worked cases, GI50 given:
- Compound: "CCOC(=O)C(C)c1nc2cc(N3CCOCC3)c(F)cc2[nH]c1=O (stereo not given)"
  Value Reported: "> 100 µM (inactive)"
- Compound: "Nc1ccc(Nc2cc(O)nc(O)n2)cc1"
  Value Reported: "> 100 µM (inactive)"
- Compound: "Cc1cccc2c(=O)c3cccc(CC(=O)O)c3oc12"
  Value Reported: "> 100 µM (inactive)"
- Compound: "[N-]=[N+]=Nc1ccc2c(c1)Sc1ccccc1N2CCCCCl"
  Value Reported: "> 100 µM (inactive)"

Query: Consider the compound "C/C(=N\NC(=O)c1ccncc1)c1ccccc1F" and give its measured GI50.
Reply: > 10 µM (inactive)
